Assay Method Text: Phase I single ascending dose pharmacokinetics of metabolite Compound II in plasma
Type: in vivo, human
Setup Conditions: human; metabolite after 400 mg DS (Fasted), single oral dose, plasma; read-out: Tmax, Median
Experimental Readout: Tmax (h)
Respond numerically; units are h and should not be typed.

What Tmax value was documented for this compound, CNC[C@H]1CN(CCc2ccsc2)CC[C@]1(O)c1cccc(C(N)=O)c1 ?
2

###

Assay Method Text: clinical
Setup Conditions: human, plasma, oral, 20 mg
Experimental Readout: Vd/F
Answers without a unit are incomplete; give the number and then its unit.

Value lookup for Vd/F; key = CN(C)C[C@H]1CN(CCc2ccsc2)CC[C@]1(O)c1cccc(C(N)=O)c1
1380 L
